- System: HepG2
- Assay: GSK_TCMDC: Percent inhibition of human HepG2 cell line. Test compounds present at 10uM.
- Assay type: functional
Response key: Criterion met means Inhibition >= 20%; Criterion not met means Inhibition < 20%.

COc1ccc2nccc([C@@H](O)CN3CCC(NC(=O)CCC(=O)c4cc(C(C)(C)C)ccc4OC)CC3)c2c1 ... Criterion met
CCOc1ccc(-c2nonc2NC(=O)c2ccc(OC(C)C)cc2)cc1OCC ... Criterion not met
COc1cc2c(cc1C(F)(F)F)N(C(=O)Nc1ccc(Br)cn1)CC2 ... Criterion not met
Cc1ccc(S(=O)(=O)n2nccc2-c2c(-c3ccc(Cl)cc3)noc2C)cc1 ... Criterion not met
O=C(Nc1cccc(N2CCC(NCc3cnn(-c4cccc(F)c4)c3)CC2)c1)c1ccncc1 ... Criterion met
C#CCCOc1ccc2ccccc2c1CNCCCCCCNCc1c(OCCC#C)ccc2ccccc12 ... Criterion met
Cc1ccc(Nc2ccnc(Nc3ccc4c(c3)CS(=O)(=O)C4)n2)cc1O.Cl ... Criterion met
CC(CN(C)C)C(=O)Nc1ccc(-c2ccc(-c3nc4ccccc4[nH]3)cc2)cc1 (stereo not drawn) ... Criterion not met
COc1cc2ncnc(Nc3ccc(OCc4ccccc4Br)c(OC)c3)c2cc1OC.Cl ... Criterion not met
Cc1ccc(-c2ccn(Cc3ccc(OCc4ccccc4)cc3)n2)cn1.Cc1ccc(-c2ccnn2Cc2ccc(OCc3ccccc3)cc2)cn1 ... Criterion not met
O=C(O)C(F)(F)F.Oc1ccc(CCNc2nc(NCCCOc3ccccc3-c3cccc(C(F)(F)F)c3)nc(N3CCNCC3)n2)cc1 ... Criterion met
CN(C)c1ccc(CN2CCCC(CNC(=O)c3ccc(-c4cccc(C(F)(F)F)c4)s3)C2)cc1.O=C(O)C(F)(F)F (stereo not drawn) ... Criterion met
COc1ccc2nccc(N3CCC(CCNCc4ccc5c(n4)NC(=O)CS5)CC3)c2c1.Cl ... Criterion met
CC1CCN(CC[C@H]2CCCN2S(=O)(=O)c2cccc(NC(=O)c3ccc(-c4ccccc4)cc3)c2)CC1 ... Criterion met
O=C(NC1CCN(c2ccnc3cc(Cl)ccc23)C1)c1cccc(F)c1.O=C(O)C(F)(F)F (stereo not drawn) ... Criterion met
COc1ccc(CNC2CCN(C)CC2)cc1-c1ccc(S(=O)(=O)NCCc2ccccn2)c(C)c1.O=C(O)C(F)(F)F ... Criterion not met
Fc1cc(Cl)ccc1Nc1ccnc2cc(-c3ccc(CNCCN4CCOCC4)o3)ccc12 ... Criterion not met
Cl.Fc1cc(CN2CCCC2)ccc1OCCCN1CCN(c2cccc(Cl)c2Cl)CC1 ... Criterion met

* * *

- Test system: Plasmodium falciparum
- Assay: GSK_TCMDC: Inhibition of Plasmodium falciparum Dd2 in whole red blood cells, using parasite LDH activity as an index of growth. Test compounds present at 2uM
- Format: functional
Overview of recorded Inhibition for various compounds
Experimental Readout: Inhibition (%)

O=C(Cc1c[nH]cn1)Nc1ccc(-c2ccc(-c3nc4ccccc4[nH]3)s2)cc1 ... 34
CC(Cc1ccc(COc2ccc(CC(CO)NCCc3cccc(Cl)c3)cc2)cc1)NCCc1cccc(Cl)c1.Cl (centres undefined) ... 86
COc1cccc2cc(C(=O)N[C@@H](CC(C)C)C(=O)NC(/C=N/NC(=O)c3ccccc3)CCc3ccccc3)oc12 (some centres undefined) ... 73
COc1cc2ncnc(Nc3ccc(OCc4ccccc4Br)c(OC)c3)c2cc1OC.Cl ... 62
Cc1ccccc1C(O)CNc1ccnc(Nc2cccc(C#N)c2)n1 (centres undefined) ... 12
CN1CCC(C(=O)Nc2ccc(-c3cccc(-c4nc5cc(C(F)(F)F)ccc5[nH]4)c3)cc2)CC1 ... 97
COc1ccccc1COc1c(C)nc(N)nc1N.Cl ... 1
N#Cc1cncc(-c2nc3c(N4CCC(Cc5ccccc5)CC4)cccc3n2CCNCc2ccccc2)c1.O=C(O)C(F)(F)F ... 99
COc1ccccc1CCNc1ncnc2c1[nH]c1ccc(F)cc12 ... 68
CN(C)Cc1ccc(-c2cc3c(-c4ccc(CN(C)C)cc4)ccnc3[nH]2)cc1.O=C(O)C(F)(F)F ... 96
Cc1cc(=NN=Cc2ccc(Cl)cc2)c2cc(C(F)(F)F)ccc2[nH]1 ... 32
Cc1ccccc1CNc1ccc2nc(N)nc(N)c2c1 ... 90
Cc1cnc2ccc(NS(=O)(=O)c3sc4ccc(Cl)cc4c3C)cc2c1N1CCNCC1.Cl ... 0
COc1ccc2ncc(F)c(NC(=O)C3CCC(NCc4cc5c(F)cccc5[nH]4)CC3)c2n1.Cl (centres undefined) ... 29
CCCNCc1ccc(-c2ccc(CN(Cc3cnc(C)cn3)C(=O)CC#N)cc2)nc1.O=C(O)C(F)(F)F ... 0
COc1cc(Cc2cnc(N)nc2N)cc(OCCNC(=O)OCc2ccccc2)c1OC ... 0
O=C(O)C(F)(F)F.c1ccc2[nH]c(-c3ccc(-c4ccc(CNC5CC5)cc4)s3)nc2c1 ... 19
S=c1nc(-c2ccccc2)n2ccsc2n1 ... 0
CC1(C)CCC(C)(C)c2c1ccc(C1CCN(CCCCNC(=O)c3ccc(-c4ccc(Cl)cc4)cc3)CC1)c2O ... 72

* * *

- Tested on: Plasmodium falciparum
- Assay: GSK_TCMDC: Inhibition of Plasmodium falciparum 3D7 in whole red blood cells, using parasite LDH activity as an index of growth. Test compounds present at 2uM
- Assay type: functional
Overview of recorded Inhibition for various molecules
Experimental Readout: Inhibition (%)

N[C@@H](Cc1ccc(O)cc1)C(=O)NC(c1ccccc1)c1c(O)ccc2ccccc12.O=C(O)C(F)(F)F (stereo partly specified) ... 95
COC(=O)CNC(c1ccccc1)c1cc(Br)ccc1NC(=O)c1ccccc1Br (stereo unspecified) ... 99
O=C(Nc1nc(-c2ccccn2)cs1)c1ccccc1COc1ccccc1 ... 83
O=C(Nc1ccc(Cl)cc1)c1cccc(S(=O)(=O)NC2CCN(CC3CCCCC3)CC2)c1.O=C(O)C(F)(F)F ... 92
CC(C)OC(=O)c1ccccc1S(N)(=O)=O ... 97
CCOC(=O)c1cn(CC)c2cc(N3CCCCC3)c(F)cc2c1=O ... 97
CCC(C)c1ccc(Nc2nc(C)cc(N(CC)CCCN3CCCCC3)n2)cc1.O=C(O)C(F)(F)F (stereo unspecified) ... 100
CC(=O)CC(=O)N1CCN(c2ccccc2)CC1 ... 85
COc1cc(OC)c(NC(=O)C2c3ccccc3C(=O)N(CC(C)C)C2c2cccs2)cc1Cl (stereo unspecified) ... 100
CCc1c[nH]c2c(N3CCCCC3=O)cc(C(=O)N[C@@H](Cc3ccccc3)[C@H](O)CNCc3cccc(OC)c3)cc12.O=CO ... 100
CO/C(=C\C=C\c1cc2cc(Cl)c(Cl)cc2[nH]1)C(=O)NCCCN1CCN(c2cccc(OC)c2)CC1 ... 100

* * *

- Test system: HepG2
- Assay: GSK_TCMDC: Percent inhibition of human HepG2 cell line. Test compounds present at 10uM.
- Format: functional
So basically, the class depends on measured Inhibition, and the ranges are label 0 (below 20%), label 1 (20% to below 30%), label 2 (30% or more)

O=C(O)C(F)(F)F.Oc1ccc(CCNc2nc(NCc3cccc(-c4cc(C(F)(F)F)ccc4Cl)c3)nc(N3CCNCC3)n2)cc1 ... label 2
CC1CCN(c2nc(C(=O)NCCc3ccc(Cl)c(Cl)c3)c(C(C)C)s2)CC1.O=C(O)C(F)(F)F ... label 0
COCCNCc1cccc(-c2ccc3c(Nc4ccc(Oc5ccccc5)cc4)ccnc3c2)c1 ... label 1
CN(Cc1ccccc1)C1CCCN(c2cc(NC(=O)c3ccc(F)cc3)ccn2)C1.O=C(O)C(F)(F)F (centres undefined) ... label 0
Br.CN1C(=O)C(=O)N(CCCCCONC(=N)N)C1=S ... label 1
CC(CCc1ccccc1)NCC(O)c1ccc2c3c(cccc13)S(=O)(=O)N2C.Cl (centres undefined) ... label 0
CCN(CC)CCCN(C(=O)Nc1cc(F)cc(F)c1)c1nc(-c2ccc(F)cc2)cs1 ... label 1
COc1ccc(-c2cccc(NC(=O)c3cccc(Cl)c3)c2)cc1CN1CCC(O)CC1.O=C(O)C(F)(F)F ... label 2
Cc1noc(C)c1-c1cccc(CNCc2ccc(-c3ccc(-c4nc5cc(C(F)(F)F)ccc5[nH]4)cc3)cc2)c1.O=C(O)C(F)(F)F ... label 2

* * *

Overview of recorded Inhibition for various molecules
- Tested on: HepG2
- Assay: GSK_TCMDC: Percent inhibition of human HepG2 cell line. Test compounds present at 10uM.
- Assay type: functional
Experimental Readout: Inhibition (%)

COc1ccc(CN2CCC(CNCCc3c(Cl)cccc3Cl)CC2)cc1.O=C(O)C(F)(F)F ... 45
CC(C)Nc1nc(NCCc2c[nH]cn2)nc(NCc2cccc3ccccc23)n1 ... 4
CN(C)Cc1ccc(CNC2CCN(Cc3ccccc3Cl)CC2)cc1.O=C(O)C(F)(F)F ... 23
CN1CCCN(c2ccnc3cc4c(cc23)N(C(=O)c2ccc(Cl)c(Cl)c2)CC4)CC1.Cl ... 20
O=C(NCCCCCN1CCC(c2c[nH]c3ccccc23)CC1)Nc1ccc(Cl)cc1Cl ... 71
